Molecular target: human recombinant USP2a catalytic domain (residues 258-605) (Homo sapiens, UniProt O75604)
Sequence (O75604 258-605): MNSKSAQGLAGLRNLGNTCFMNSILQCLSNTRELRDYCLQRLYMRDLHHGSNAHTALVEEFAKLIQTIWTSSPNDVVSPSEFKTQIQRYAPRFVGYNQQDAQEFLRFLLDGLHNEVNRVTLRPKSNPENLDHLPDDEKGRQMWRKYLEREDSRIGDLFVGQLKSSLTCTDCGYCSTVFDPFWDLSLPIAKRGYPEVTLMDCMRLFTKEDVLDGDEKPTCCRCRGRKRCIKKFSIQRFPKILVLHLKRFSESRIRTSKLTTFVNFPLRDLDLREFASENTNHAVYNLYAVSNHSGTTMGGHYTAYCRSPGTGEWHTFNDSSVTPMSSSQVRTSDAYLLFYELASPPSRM
Assay: Di-Ub K63-2 hydrolysis (FRET) assay
Details: read-out: IC50, USP2a activity, Di-Ub Assay; Di-Ub K63-2, 30 min pre-incubation
Please provide measured IC50 for the entries that follow.

Need IC50 of COC(=O)CC[C@@H](C)[C@H]1CC[C@H]2[C@@H]3CC[C@@H]4C[C@H](O)CC[C@]4(C)[C@H]3CC[C@]12C [LCAME, Methyl 3-Hydroxylithocholanoate] , thanks.
> 50 µM

Would you mind telling me what IC50 value was observed for C[C@H](CCC(=O)O)[C@H]1CC[C@H]2[C@@H]3[C@H](O)C[C@@H]4C[C@H](O)CC[C@]4(C)[C@H]3C[C@H](O)[C@]12C [CGG, cholic acid, reference compound] ?
> 100 µM

Fill in: IC50 of C[C@H](CCC(=O)N1CCOCC1)[C@H]1CC[C@H]2[C@@H]3CC[C@@H]4C[C@H](O)CC[C@]4(C)[C@H]3CC[C@]12C is ___
> 100 µM

Please give the measured IC50 for this molecule: C[C@H](CCC(=O)O)[C@H]1CC[C@H]2[C@@H]3[C@@H](O)C[C@@H]4C[C@H](O)CC[C@]4(C)[C@H]3CC[C@]12C [UDCA, ursodeoxycholic acid, reference compound]
> 100 µM

Look up IC50: Cc1ccc(/C=C2\CNC/C(=C\c3ccc(C)cc3)C2=O)cc1 [NSC 632839, reference compound]
> 50 µM

Which IC50 is listed for C[C@H](CCC(=O)NCC(=O)O)[C@H]1CC[C@H]2[C@@H]3CC[C@@H]4C[C@H](O)CC[C@]4(C)[C@H]3CC[C@]12C [LCAGLY, N-(3-hydroxylithocholanolyl)glycine] ?
> 50 µM
